# Tested on: BT-549 breast
# assay_overview: NCI-60 one-dose screen, 48 h (100 = growth as untreated, 0 = no growth, -100 = all killed)
# cond: 10 µM unless noted
About 83,000 compounds went through this panel and 20% of them were active in at least one assay; those are over-represented in the sample as a whole.
Decision: growth >= 80% yields condition met, all other cases yield condition not met.

Dear colleague, could you confirm whether CCOC(=O)c1c(C)nn(CC(O)c2ccccc2)c1NC(=O)Nc1cccc(F)c1 (configuration not stated) has growth at or above 80%?
condition met

Dear colleague, could you confirm whether `COc1ccc(NC(=O)c2ccc(C(=O)Nc3ccc(OC)cc3OC)cc2)c(OC)c1` has growth at or above 80%?
condition not met

Dear colleague, could you confirm whether `CCCCCCCCn1ccc2cc(NC(=O)Cn3cc(CN4CCN(CC)CC4)nn3)ccc21` has growth at or above 80%?
condition not met

Dear colleague, could you confirm whether `C/C(C=O)=C\c1ccc2c(c1)OCO2` has growth at or above 80%?
condition met

Dear colleague, could you confirm whether `COc1cc(C#Cc2ccc(=O)oc2C#Cc2ccccc2)cc(OC)c1OC` has growth at or above 80%?
condition not met

Dear colleague, could you confirm whether `C[C@@H]1O[C@@H](O[C@@H]2C[C@H](c3ccc4c(c3O)C(=O)C3=C(C4=O)[C@@]4(O)C(=O)C[C@](C)(O)C[C@@]4(O)C=C3)O[C@H](C)[C@H]2O)C[C@H](O)[C@@H]1O` has growth at or above 80%?
condition met

Dear colleague, could you confirm whether CCN1C(=O)N(CC)C2C1NN=C1SCC(=O)N12 (configuration not stated) has growth at or above 80%?
condition met

Dear colleague, could you confirm whether `COc1cc2c(cc1O)[C@@]1(C)[C@H](c3ccccc3Br)OC(=O)N1CC2` has growth at or above 80%?
condition met

Dear colleague, could you confirm whether `O=C(OC[C@@H]1CO1)c1cccc2c(=O)c3ccccc3[nH]c12` has growth at or above 80%?
condition not met

Dear colleague, could you confirm whether `O=C1/C(=C/c2ccccc2)CN(C(=O)c2cccnc2)C/C1=C\c1ccccc1` has growth at or above 80%?
condition not met

Dear colleague, could you confirm whether `O=C(/C=C/c1cccc(Cl)c1)c1cccc(OCCCCOc2cccc(C(=O)/C=C/c3cccc(Cl)c3)c2)c1` has growth at or above 80%?
condition met

Dear colleague, could you confirm whether `COc1cc2c3c(n(CCCCNCCCn4c5c(c6cc(OC)c(OC)cc6c4=O)C(=O)c4cc6c(cc4-5)OCO6)c(=O)c2cc1OC)-c1cc2c(cc1C3=O)OCO2` has growth at or above 80%?
condition met

Dear colleague, could you confirm whether `COc1ccc(NC(=O)c2sc3nc4c(cc3c2N)CCCC4)cc1` has growth at or above 80%?
condition not met

Dear colleague, could you confirm whether `COc1ccc2c(c1)c(-c1nonc1-c1cn(C)c3ccc(OC)cc13)cn2C` has growth at or above 80%?
condition not met

Dear colleague, could you confirm whether `Cn1c(=O)c2c(c3ccccc31)OC(N)=C(C#N)C21C(=O)c2ccccc2C1=O` has growth at or above 80%?
condition met

Dear colleague, could you confirm whether COc1ccc(C2C(C#N)=C(N)Oc3c2sc2c(Br)cccc32)cc1 (configuration not stated) has growth at or above 80%?
condition not met

Dear colleague, could you confirm whether `CC(C)(CO)N(CCO)CCO` has growth at or above 80%?
condition met

Dear colleague, could you confirm whether `CC1(C)CC2=C3C=C[C@@H]4[C@@]5(C)CC[C@H](O)C(C)(C)[C@@H]5CC[C@@]4(C)[C@]3(C)CC[C@@]2(C(=O)O)CC1=O` has growth at or above 80%?
condition not met

Dear colleague, could you confirm whether `Cc1ccccc1CNc1c2ccccc2nc2ccccc12` has growth at or above 80%?
condition not met

Dear colleague, could you confirm whether `CN1CCCc2cc(/C=C3/SC(=S)N(CCc4ccc(O)cc4)C3=O)ccc21` has growth at or above 80%?
condition met

Dear colleague, could you confirm whether `COc1cc(/C=C\c2cc(/C=C\c3ccc(O)c(OC)c3)n(C(=O)CNc3ccc(Cl)cc3)n2)ccc1O` has growth at or above 80%?
condition not met

Dear colleague, could you confirm whether `CCOC(=O)c1n[nH]n2c1nc(=O)c1cnn(C)c12` has growth at or above 80%?
condition met

Dear colleague, could you confirm whether `N#Cc1c(-c2ccccc2)c(C#N)c2c(C#N)c(N)nn2c1N` has growth at or above 80%?
condition not met

Dear colleague, could you confirm whether `Cc1ccc2[nH]c(-c3ccc(S(C)(=O)=O)cc3)c(/C=N/N=C(N)N)c2c1` has growth at or above 80%?
condition not met

Dear colleague, could you confirm whether CN(Cc1cnc2nc(N)nc(N)c2n1)c1c(Cl)cc(C(=O)NC(CCC(=O)O)C(=O)O)cc1Cl (configuration not stated) has growth at or above 80%?
condition not met

Dear colleague, could you confirm whether `COc1ccc(Nc2ncc(C(N)=O)c(NCCCNC(=O)C3CCC3)n2)cc1` has growth at or above 80%?
condition not met

Dear colleague, could you confirm whether CO[C@H](C(=O)[C@@H](O)[C@@H](C)O)[C@@H]1Cc2cc3cc(O[C@H]4C[C@@H](O[C@H]5C[C@@H](O)[C@H](O)C(C)O5)[C@H](O)C(C)O4)c(C)c(O)c3c(O)c2C(=O)[C@H]1O[C@H]1C[C@@H](O[C@H]2C[C@@H](O[C@H]3C[C@@H](OC)[C@H](O)C(C)O3)[C@@H](O)C(C)O2)C(O)(O)C(C)O1 (some centres not stated) has growth at or above 80%?
condition not met

Dear colleague, could you confirm whether CC1CN=C(c2cccc(-c3ccc(-c4ccccc4)o3)c2)N1 (configuration not stated) has growth at or above 80%?
condition not met

Dear colleague, could you confirm whether CCCCN1C(=O)/C(=c2\sc3n(c2=O)NC2C(N=3)N(CC)C(=O)N2CC)c2ccccc21 (configuration not stated) has growth at or above 80%?
condition not met

Dear colleague, could you confirm whether `CC/C=C1/C(=O)C=C[C@@H]1C/C=C\CCCC(=O)OC` has growth at or above 80%?
condition not met

Dear colleague, could you confirm whether `O=C1c2cc3c(cc2-c2c1c1ccc(Cl)cc1c(=O)n2C[C@H](O)CO)OCO3` has growth at or above 80%?
condition not met

Dear colleague, could you confirm whether `C=CC(=O)NCCOc1cccc(Nc2cc(NCCCNC(=O)C3CCC3)c(Br)cn2)c1` has growth at or above 80%?
condition not met

Dear colleague, could you confirm whether `Nc1c(C(=O)Nc2ccncc2)sc2nc3c(cc12)CCCCC3` has growth at or above 80%?
condition not met

----------
Assignment: determine reported growth for the given compounds.
# Tested on: OVCAR-5 ovarian
# assay_overview: NCI-60 one-dose screen, 48 h (100 = growth as untreated, 0 = no growth, -100 = all killed)
# cond: 10 µM unless noted
Compounds without any hit were thinned out: in the full panel of roughly 83,000, 20% have a hit.
Provide only the numeric value, understood in %.

Look up and report measured growth (OVCAR-5 ovarian) for the following compound: `O=C(O)CCCc1cnc2c3sccc3nc(SCc3c(Cl)cccc3Cl)n12`
80.5

Look up and report measured growth (OVCAR-5 ovarian) for the following compound: `O=C1/C(=C/c2ccc(C(F)(F)F)cc2)COc2ccc(O)cc21`
96.5

Look up and report measured growth (OVCAR-5 ovarian) for the following compound: `CN(C)c1ccc(/C=C2/C=C(c3ccccc3)OC2=O)cc1`
108

Look up and report measured growth (OVCAR-5 ovarian) for the following compound: `CCN1CCN(CC(=O)Nc2nc3ccc(NCc4ccc(Br)cc4)cc3s2)CC1`
76

Look up and report measured growth (OVCAR-5 ovarian) for the following compound: `Cc1ccc(/C=C/C(=O)c2ccc(NC(=O)CSc3nc4c([nH]3)c(=O)n(C)c(=O)n4C)cc2)c(C)c1`
124

Look up and report measured growth (OVCAR-5 ovarian) for the following compound: `O=C1c2cccnc2C(=O)c2c1c(C(=O)OCCCN1CCCCC1)c1ccccn21`
-19.2

Look up and report measured growth (OVCAR-5 ovarian) for the following compound: `CCN(CC)CCN(CCN(CC)CC)c1ccccc1`
94.3

Look up and report measured growth (OVCAR-5 ovarian) for the following compound: `COc1cc(/C=C2\C(=O)N(c3c(Cl)cccc3Cl)c3ccccc32)cc(OC)c1OCCCCCCn1c2ccccc2c(=O)c2ccccc21`
88.6

Look up and report measured growth (OVCAR-5 ovarian) for the following compound: `CCOC(=O)C1CCN(c2ccc(N3C[C@@H](CNCc4ccc(C(=N)N)cc4)OC3=O)cc2)CC1`
94.3

Look up and report measured growth (OVCAR-5 ovarian) for the following compound: `Cc1ccccc1CNc1c2ccccc2nc2ccccc12`
36.7

Look up and report measured growth (OVCAR-5 ovarian) for the following compound: `Cc1cc2nc3c4ccccc4n(CCN(C)C)c3nc2cc1C`
15.6

Look up and report measured growth (OVCAR-5 ovarian) for the following compound: COc1cc(N2C(=O)[C@H](c3ccccc3)C2c2ccc(SC)cc2)cc(OC)c1OC (some centres undefined)
56.8

Look up and report measured growth (OVCAR-5 ovarian) for the following compound: `O=C1Nc2ccc(F)cc2/C1=C\c1nc(-c2ccccc2F)n2ccccc12`
67.2

Look up and report measured growth (OVCAR-5 ovarian) for the following compound: `O=C1NC(=C(Cl)Cl)/C(=N/S(=O)(=O)N2CCCCC2)N1`
90.9

Look up and report measured growth (OVCAR-5 ovarian) for the following compound: `CCn1cc(C(=O)NN=C2CCCCCC2)c(=O)c2ccc(C)nc21`
92.6

Look up and report measured growth (OVCAR-5 ovarian) for the following compound: `Cn1ncc2ccc(-c3nc(-c4ccccc4)[nH]c3-c3n[nH]c(=O)n3C3CC3)cc21`
98

Look up and report measured growth (OVCAR-5 ovarian) for the following compound: `COc1ccc2nc(Cl)c(/C=C/C(=O)c3ccc(NC(=O)CSc4nnc(-c5ccc(Cl)c(Cl)c5)n4-c4ccccc4)cc3)cc2c1`
102

Look up and report measured growth (OVCAR-5 ovarian) for the following compound: `C=C1C(=O)O[C@H]2[C@H]1CC/C(COC(=O)NCCCCCCCCNC(=O)OC/C1=C/CC[C@@]3(C)O[C@H]3[C@H]3OC(=O)C(=C)[C@@H]3CC1)=C\CC[C@@]1(C)O[C@@H]21`
-79.6

Look up and report measured growth (OVCAR-5 ovarian) for the following compound: `O=C(O)c1cccc(N/C=C/C(=O)c2cc3cc(Br)ccc3oc2=O)c1`
98.8

Reference source: PubChem BioAssay (NCI)
